# target.under.test: FBW7/Skp1 (Homo sapiens, UniProt Q969H0)
# Sequence (Q969H0 whole entry, species assumed): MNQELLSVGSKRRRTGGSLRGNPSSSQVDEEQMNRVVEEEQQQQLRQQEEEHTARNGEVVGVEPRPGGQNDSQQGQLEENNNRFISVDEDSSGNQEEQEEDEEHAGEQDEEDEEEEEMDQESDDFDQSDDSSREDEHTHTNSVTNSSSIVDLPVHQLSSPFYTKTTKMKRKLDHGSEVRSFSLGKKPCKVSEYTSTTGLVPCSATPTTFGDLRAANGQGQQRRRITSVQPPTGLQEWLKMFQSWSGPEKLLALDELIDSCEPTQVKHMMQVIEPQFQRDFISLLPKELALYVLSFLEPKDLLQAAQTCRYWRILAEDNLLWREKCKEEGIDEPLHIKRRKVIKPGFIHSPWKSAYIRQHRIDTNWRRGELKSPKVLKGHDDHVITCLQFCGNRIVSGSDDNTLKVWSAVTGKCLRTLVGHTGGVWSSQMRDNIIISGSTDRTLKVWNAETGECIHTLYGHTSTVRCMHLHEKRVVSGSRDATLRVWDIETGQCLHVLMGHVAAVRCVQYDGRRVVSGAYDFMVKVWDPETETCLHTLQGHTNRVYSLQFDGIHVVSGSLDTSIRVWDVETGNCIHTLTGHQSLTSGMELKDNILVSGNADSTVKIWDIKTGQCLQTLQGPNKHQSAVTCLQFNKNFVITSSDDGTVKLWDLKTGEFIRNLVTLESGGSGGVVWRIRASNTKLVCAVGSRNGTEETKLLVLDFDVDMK
# Sequence (P63208 whole entry partner, species assumed): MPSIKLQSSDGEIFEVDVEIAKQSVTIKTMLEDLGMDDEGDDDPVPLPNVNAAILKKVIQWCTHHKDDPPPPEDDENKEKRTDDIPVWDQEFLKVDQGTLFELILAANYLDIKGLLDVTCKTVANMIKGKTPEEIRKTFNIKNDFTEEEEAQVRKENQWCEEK
# Sequence (Q13616 whole entry partner, species assumed): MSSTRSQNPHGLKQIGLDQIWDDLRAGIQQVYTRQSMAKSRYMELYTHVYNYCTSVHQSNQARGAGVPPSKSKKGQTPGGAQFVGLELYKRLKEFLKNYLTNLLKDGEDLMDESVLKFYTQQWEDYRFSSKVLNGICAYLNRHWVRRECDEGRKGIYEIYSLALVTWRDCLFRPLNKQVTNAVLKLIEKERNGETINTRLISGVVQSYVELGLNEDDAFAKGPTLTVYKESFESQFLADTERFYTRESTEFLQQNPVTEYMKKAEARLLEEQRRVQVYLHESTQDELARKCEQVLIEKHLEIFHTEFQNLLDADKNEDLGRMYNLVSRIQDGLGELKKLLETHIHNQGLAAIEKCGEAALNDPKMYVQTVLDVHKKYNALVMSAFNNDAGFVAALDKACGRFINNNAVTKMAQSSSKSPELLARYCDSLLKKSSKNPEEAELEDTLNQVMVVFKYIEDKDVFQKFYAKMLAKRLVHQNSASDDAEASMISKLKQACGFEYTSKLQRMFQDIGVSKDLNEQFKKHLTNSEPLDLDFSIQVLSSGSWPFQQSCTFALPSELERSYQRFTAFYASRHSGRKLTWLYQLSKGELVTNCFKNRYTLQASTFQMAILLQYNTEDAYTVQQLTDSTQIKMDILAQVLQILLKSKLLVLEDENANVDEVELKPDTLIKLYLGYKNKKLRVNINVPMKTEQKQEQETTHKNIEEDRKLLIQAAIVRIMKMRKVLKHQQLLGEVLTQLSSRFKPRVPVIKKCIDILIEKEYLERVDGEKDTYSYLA
# Sequence (P62877 whole entry partner, species assumed): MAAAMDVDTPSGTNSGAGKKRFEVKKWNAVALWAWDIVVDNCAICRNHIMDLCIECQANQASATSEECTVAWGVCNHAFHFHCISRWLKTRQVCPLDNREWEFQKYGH
# assay.summary: Selectivity assay vs other E3s: Fbw7
# Type: biochemical
# particulars: read-out: % Inhibition Fbw7 @ 10 μM
Starred links: 1 amine or outer side, 2 acyl side, 3 side chain; linkers in the order of their positions; H or OH if unused. Non-standard residues stand in square brackets, D forms with d. Residues, ends and D or L forms follow the SMILES beside them. Phe(2-F) = N[C@@H](Cc1ccccc1F)C(=O)O; Suc = O=C(CCC(=O)[*:2])[*:1]
For each record, write down the corresponding inhibition at 10 µM.
Kindly answer with a numeric value in %, unit omitted.

For the compound COc1ccc(C[C@H](NC(=O)[C@H](Cc2ccccc2F)NC(=O)CNC(=O)[C@H](CCC(=O)O)NC(=O)CCC(=O)O)C(=O)N[C@@H](CCC(=O)O)C(N)=O)cc1 [UBP006, Suc-EGF(2F)Y(Me)E-NH2] (Suc-EG[Phe(2-F)]Y(Me)E-NH2) , what inhibition at 10 µM is on record? 0

For the compound NC(=O)[C@H](CCC(=O)O)NC(=O)[C@H](Cc1ccccc1)NC(=O)[C@H](Cc1ccccc1)NC(=O)CNC(=O)[C@H](CCC(=O)O)NC(=O)CCC(=O)O [UBP002, Suc-EGFFE-NH2] (Suc-EGFFE-NH2) , what inhibition at 10 µM is on record? 0
